test system: Puccinia recondita-tritici (PUCCRT); test: Control of wheat brown rust, one-day protective (1DP) application, greenhouse; format: in vivo; details: component B alone, 1.6 ppm

molecule: CC1(C)CCC(Cc2ccc(Cl)cc2)C1(O)Cn1cncn1 (stereo not shown)
system_under_test: Puccinia recondita-tritici (PUCCRT)
B % DC: 8%

molecule: CCCC1COC(Cn2cncn2)(c2ccc(Cl)cc2Cl)O1 (stereo not shown)
system_under_test: Puccinia recondita-tritici (PUCCRT)
B % DC: 0%

molecule: CC(C)(C)C(O)(CCc1ccc(Cl)cc1)Cn1cncn1 (stereo not shown)
system_under_test: Puccinia recondita-tritici (PUCCRT)
B % DC: 18%

molecule: CC(C1CC1)C(O)(Cn1cncn1)c1ccc(Cl)cc1 (stereo not shown)
system_under_test: Puccinia recondita-tritici (PUCCRT)
B % DC: 27%
